# ASSAY_SYSTEM: Amine oxidase [flavin-containing] B (Homo sapiens, UniProt P27338)
# Sequence (P27338 whole entry): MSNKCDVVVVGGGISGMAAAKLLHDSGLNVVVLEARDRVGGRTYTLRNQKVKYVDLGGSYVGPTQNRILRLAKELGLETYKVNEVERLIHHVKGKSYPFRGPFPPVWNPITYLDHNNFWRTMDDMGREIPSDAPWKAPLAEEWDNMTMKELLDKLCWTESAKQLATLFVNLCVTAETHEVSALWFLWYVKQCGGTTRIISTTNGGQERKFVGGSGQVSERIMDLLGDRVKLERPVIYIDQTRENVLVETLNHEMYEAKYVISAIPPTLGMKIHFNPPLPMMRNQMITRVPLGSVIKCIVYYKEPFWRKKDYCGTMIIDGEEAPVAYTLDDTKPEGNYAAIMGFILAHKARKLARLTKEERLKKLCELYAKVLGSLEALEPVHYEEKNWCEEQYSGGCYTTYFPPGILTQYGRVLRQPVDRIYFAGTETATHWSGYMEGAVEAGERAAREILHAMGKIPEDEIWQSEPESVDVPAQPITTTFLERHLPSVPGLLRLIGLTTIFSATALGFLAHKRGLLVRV
Kindly supply the reported IC50 values for the records listed here.
Answers are plain numbers, in µM.

Past entries and their recorded results:
{"MOLECULE": "COc1cc(/C=C/C(=O)Nc2cccc(CN(C)Cc3ccccc3)c2)ccc1O", "DISPLAY_UNIT": "µM", "IC50": 7.7}
{"MOLECULE": "O=C(/C=C/c1ccc(O)cc1O)NCCC1CCN(Cc2ccccc2)CC1", "DISPLAY_UNIT": "µM", "IC50": 8.3}
{"MOLECULE": "CN(Cc1ccccc1)Cc1ccc(NC(=O)/C=C/c2ccc(O)cc2)cc1", "DISPLAY_UNIT": "µM", "IC50": 29}
{"MOLECULE": "O=C(/C=C/c1ccc(O)c(O)c1)NCCC1CCN(Cc2ccccc2)CC1", "DISPLAY_UNIT": "µM", "IC50": 6}

# next compound below
Ask | Look up IC50 for this compound: COc1cc(/C=C/C(=O)NCCC2CCN(Cc3ccccc3)CC2)ccc1O
Reply | 13.1
